molecular target: Mu-type opioid receptor (Rattus norvegicus); experiment: Inhibition against [3H]naloxone opioid receptor mu 1 in rat brain membranes at 1 umol/L.; assay type: cell membranes
# reported inhibition; entries follow
The response must be a number in % with no trailing unit.

COC(=O)C12CN(C)CC(C(=O)OC)(C1=O)C(c1ccc([N+](=O)[O-])cc1)N(C)C2c1ccc([N+](=O)[O-])cc1 (stereo in doubt)	4.6
COC(=O)C12CN(C)CC(C(=O)OC)(C1=O)C(c1ccc3ccccc3n1)N(C)C2c1ccc2ccccc2n1 (configuration not stated)	36.6
COC(=O)C12CN(C)CC(C(=O)OC)(C1=O)C(c1ccc(F)cc1)N(C)C2c1ccc(F)cc1 (configuration not stated)	10.1
COC(=O)C12C[N+](C)(C)CC(C(=O)OC)(C1=O)C(c1ccccn1)N(C)C2c1ccccn1 (configuration not stated)	29.2
COC(=O)C12CN(C)CC(C(=O)OC)(C1=O)C(c1ccc(Cl)cc1)N(C)C2c1ccc(Cl)cc1 (configuration not stated)	2.2
COC(=O)C12CN(C)CC(C(=O)OC)(C1=O)C(c1cccc(Cl)c1)N(C)C2c1cccc(Cl)c1 (configuration not stated)	8.8
COC(=O)C12CN(C)CC(C(=O)OC)(C1=O)C(c1cccc(C)c1)N(C)C2c1cccc(C)c1 (configuration not stated)	-5.9
COC(=O)C12CN(C)CC(C(=O)OC)(C1=O)C(c1cccc(O)c1)N(C)C2c1cccc(O)c1 (configuration not stated)	35.6
COC(=O)C12CN(C)CC(C(=O)OC)(C1=O)C(c1ccccc1Cl)N(C)C2c1ccccc1Cl (configuration not stated)	2.7
COC(=O)C12CN(C)CC(C(=O)OC)(C1=O)C(c1cccnc1)N(C)C2c1cccnc1 (configuration not stated)	30.7

Item COC(=O)C12CN(C)CC(C(=O)OC)(C1=O)C(c1ccccc1F)N(C)C2c1ccccc1F (configuration not stated) has what recorded inhibition?
-9.2

// inhibition lookup, key: COC(=O)C12CN(C)CC(C(=O)OC)(C1=O)C(c1ccncc1)N(C)C2c1ccncc1 (configuration not stated)
3.1

Query (molecule): COC(=O)C12CN(C)CC(C(=O)OC)(C1=O)C(c1ccnc3ccccc13)N(C)C2c1ccnc2ccccc12 (configuration not stated) ; field requested: inhibition
-7.1

----------
experiment: Acid dissociation constant was measured in experiment 1; type: ADME; settings: read-out: pKa1
EXPERIMENTAL_ENDPOINT: pKa
No unit in the answer, please; the number alone is enough.

COC(=O)C12CN(C)CC(C(=O)OC)(C1=O)C(c1cccc(Cl)c1)N(C)C2c1cccc(Cl)c1 (centres undefined)	10.6

Quick one: pKa for COC(=O)C12CN(C)CC(C(=O)OC)(C1=O)C(c1ccc(OC)cc1)N(C)C2c1ccc(OC)cc1 (centres undefined) ?
9.05

Which pKa value belongs to COC(=O)C12CN(C)CC(C(=O)OC)(C1=O)C(c1cccc(O)c1)N(C)C2c1cccc(O)c1 (centres undefined) ?
10.3

Data request, read-out pKa, for COC(=O)C12CN(C)CC(C(=O)OC)(C1=O)C(c1cccc(F)c1)N(C)C2c1cccc(F)c1 (centres undefined)
13.1

----------
molecular target: Delta-type opioid receptor (Rattus norvegicus); test: Inhibition against [3H]DPDPE Opioid receptor delta 1 in rat brain membranes at 1 umol/L; assay type: cell membranes
EXPERIMENTAL_ENDPOINT: inhibition (%)
Report the figure in % without appending any unit label.

May I ask what inhibition has been recorded for CN1CC2(C(=O)O)C(=O)C(C(=O)O)(C1)C(c1ccccc1)N(C)C2c1ccccc1 (stereo unspecified) ?
-0.3

Which measured inhibition value corresponds to COC(=O)C12CN(C)CC(C(=O)OC)(C1=O)C(c1cccc([N+](=O)[O-])c1)N(C)C2c1cccc([N+](=O)[O-])c1 (stereo unspecified) ?
14

----------
# maps each entry to its inhibition
molecular target: Kappa-type opioid receptor (Homo sapiens, UniProt P41145); assay: Inhibition against [3H]diprenorphine human Opioid receptor kappa 1 at 10 umol/L
Sequence (P41145 whole entry): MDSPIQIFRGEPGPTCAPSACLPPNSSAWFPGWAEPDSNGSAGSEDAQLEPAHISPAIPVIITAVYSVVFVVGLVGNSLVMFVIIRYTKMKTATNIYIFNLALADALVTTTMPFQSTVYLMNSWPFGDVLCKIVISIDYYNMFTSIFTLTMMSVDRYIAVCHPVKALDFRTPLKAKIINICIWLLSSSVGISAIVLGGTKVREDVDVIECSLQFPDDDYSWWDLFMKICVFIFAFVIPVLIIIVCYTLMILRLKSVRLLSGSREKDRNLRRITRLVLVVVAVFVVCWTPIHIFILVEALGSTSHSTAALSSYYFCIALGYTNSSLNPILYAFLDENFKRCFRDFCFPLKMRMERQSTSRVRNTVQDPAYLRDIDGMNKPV
Please append the unit to your numeric answer.

COC(=O)C12CN(C)CC(C(=O)OC)(C1=O)C(c1cccc(OC)c1)N(C)C2c1cccc(OC)c1 (stereo unspecified)	52.2%
COC(=O)C12CN(C)CC(C(=O)OC)(C1=O)C(c1cccc(C#N)c1)N(C)C2c1cccc(C#N)c1 (stereo unspecified)	35.5%
COC(=O)C12CN(C)CC(C(=O)OC)(C1=O)C(c1cccnc1)N(C)C2c1cccnc1 (stereo unspecified)	54.8%

Need inhibition, item COC(=O)C12CN(C)CC(C(=O)OC)(C1=O)C(c1ccnc3ccccc13)N(C)C2c1ccnc2ccccc12 (stereo unspecified)
25.8%

Suppose we examine the compound CCOC(=O)C12CN(C)CC(C(=O)OCC)(C1=O)C(c1cccc(O)c1)N(C)C2c1cccc(O)c1 (stereo unspecified) ; what inhibition value has been reported?
92.7%

So what's the measured inhibition for this one? COC(=O)C12CN(C)CC(C(=O)OC)(C1=O)C(c1ccc(O)cc1)N(C)C2c1ccc(O)cc1 (stereo unspecified)
8.4%

Report inhibition for COC(=O)C12CN(C)CC(C(=O)OC)(C1=O)C(c1ccc(Cl)c(Cl)c1)N(C)C2c1ccc(Cl)c(Cl)c1 (stereo unspecified) please.
38.9%

Given COC(=O)C12CN(C)CC(C(=O)OC)(C1=O)C(c1ccccc1[N+](=O)[O-])N(C)C2c1ccccc1[N+](=O)[O-] (stereo unspecified) , state its recorded inhibition.
3.4%

inhibition for COC(=O)C12CN(C)CC(C(=O)OC)(C1=O)C(c1ccc(Cl)cc1)N(C)C2c1ccc(Cl)cc1 (stereo unspecified) ?
63%

Sample COC(=O)C12CN(C)CC(C(=O)OC)(C1=O)C(c1cccc3ccccc13)N(C)C2c1cccc2ccccc12 (stereo unspecified) — what was its inhibition?
7.8%

Entry COC(=O)C12CN(C)CC(C(=O)OC)(C1=O)C(c1ccc3ccccc3c1)N(C)C2c1ccc2ccccc2c1 (stereo unspecified) has what inhibition?
18.6%

Consider the compound COC(=O)C12CN(C)CC(C(=O)OC)(C1=O)C(c1cccc([N+](=O)[O-])c1)N(C)C2c1cccc([N+](=O)[O-])c1 (stereo unspecified) and give its measured inhibition.
10%

Record request: inhibition value, item COC(=O)C12CN(C)CC(C(=O)OC)(C1=O)C(c1ccccc1F)N(C)C2c1ccccc1F (stereo unspecified)
47.7%

Endpoint output: inhibition of COC(=O)C12CN(C)CC(C(=O)OC)(C1=O)C(c1ccncc1)N(C)C2c1ccncc1 (stereo unspecified) . Value?
12.5%

I'd like to know its inhibition. The compound in question is COC(=O)C12CN(C)CC(C(=O)OC)(C1=O)C(c1ccccc1Cl)N(C)C2c1ccccc1Cl (stereo unspecified)
65.4%

# input compound: COC(=O)C12CN(C)CC(C(=O)OC)(C1=O)C(c1ccc(C#N)cc1)N(C)C2c1ccc(C#N)cc1 (stereo unspecified) ; wanted: its inhibition
17.2%

----------
molecular target: Mu-type opioid receptor (Rattus norvegicus) (UniProt P33535); assay: Inhibition against [3H]naloxone opioid receptor mu 1 in rat brain membranes at 1 umol/L.; assay type: cell membranes
Sequence (P33535 whole entry): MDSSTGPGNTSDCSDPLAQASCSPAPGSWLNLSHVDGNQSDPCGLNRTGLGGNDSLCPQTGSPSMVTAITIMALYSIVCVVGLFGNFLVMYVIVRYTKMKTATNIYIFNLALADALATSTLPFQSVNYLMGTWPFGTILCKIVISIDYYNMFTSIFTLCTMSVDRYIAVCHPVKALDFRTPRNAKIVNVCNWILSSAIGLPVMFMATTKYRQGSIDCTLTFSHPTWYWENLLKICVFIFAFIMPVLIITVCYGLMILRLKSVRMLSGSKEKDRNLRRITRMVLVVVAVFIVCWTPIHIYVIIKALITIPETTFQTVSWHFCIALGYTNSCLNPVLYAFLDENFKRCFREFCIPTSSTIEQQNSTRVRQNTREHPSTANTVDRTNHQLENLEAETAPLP
Label 1 (yes) for high-side inhibition (at or above 9%) and 0 (no) for low-side inhibition (below it).

COC(=O)C12CN(C)CC(C(=O)OC)(C1=O)C(c1ccc([N+](=O)[O-])cc1)N(C)C2c1ccc([N+](=O)[O-])cc1 (trans isomer)	0 (no)
COC(=O)C12CN(C)CC(C(=O)OC)(C1=O)C(c1ccc(Cl)c(Cl)c1)N(C)C2c1ccc(Cl)c(Cl)c1 (stereo not drawn)	0 (no)

hey, is inhibition for this one >= 9%? COC(=O)C12CN(C)CC(C(=O)OC)(C1=O)C(c1cccc(F)c1)N(C)C2c1cccc(F)c1 (stereo not drawn)
0 (no)

Could you please find out whether COC(=O)C12CN(C)CC(C(=O)OC)(C1=O)C(c1ccccc1[N+](=O)[O-])N(C)C2c1ccccc1[N+](=O)[O-] (stereo not drawn) has inhibition that meets 9% or exceeds it?
0 (no)

Has COC(=O)C12CN(C)CC(C(=O)OC)(C1=O)C(c1ccc(O)cc1)N(C)C2c1ccc(O)cc1 (stereo not drawn) a recorded inhibition greater than or equal to 9%?
1 (yes)

Say whether CCOC(=O)C12CN(C)CC(C(=O)OCC)(C1=O)C(c1cccc(O)c1)N(C)C2c1cccc(O)c1 (stereo not drawn) shows inhibition of 9% or more.
1 (yes)

Check if inhibition >= 9% (inclusive). Item: COC(=O)C12CN(C)CC(C(=O)OC)(C1=O)C(c1cccc(C#N)c1)N(C)C2c1cccc(C#N)c1 (stereo not drawn)
1 (yes)

Could you verify whether the entry CN1CC2(C(=O)O)C(=O)C(C(=O)O)(C1)C(c1ccccc1)N(C)C2c1ccccc1 (stereo not drawn) shows inhibition of no less than 9%?
1 (yes)

----------
biological target: Delta-type opioid receptor (Rattus norvegicus) (UniProt P33533); assay: Inhibition against [3H]D-Ala-deltorphin opioid receptor delta 2 in rat brain membranes at 1 umol/L.; type: cell membranes
Sequence (P33533 whole entry): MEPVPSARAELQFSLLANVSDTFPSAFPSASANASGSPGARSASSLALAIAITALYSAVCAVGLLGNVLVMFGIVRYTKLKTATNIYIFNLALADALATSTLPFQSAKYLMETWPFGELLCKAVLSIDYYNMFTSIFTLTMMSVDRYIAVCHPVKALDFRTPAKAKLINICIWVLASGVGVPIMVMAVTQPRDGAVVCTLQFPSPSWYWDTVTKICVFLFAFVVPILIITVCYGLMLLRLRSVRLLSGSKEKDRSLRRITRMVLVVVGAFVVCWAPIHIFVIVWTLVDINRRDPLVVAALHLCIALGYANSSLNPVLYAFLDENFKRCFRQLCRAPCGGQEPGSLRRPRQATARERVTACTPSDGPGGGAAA
EXPERIMENTAL_ENDPOINT: inhibition
Answers without a unit are incomplete; give the number and then its unit.

Below, 3 compounds whose answers are already recorded.
COC(=O)C12CN(C)CC(C(=O)OC)(C1=O)C(c1ccccc1[N+](=O)[O-])N(C)C2c1ccccc1[N+](=O)[O-] (centres undefined)	-1.1%
COC(=O)C12CN(C)CC(C(=O)OC)(C1=O)C(c1ccc3ccccc3c1)N(C)C2c1ccc2ccccc2c1 (centres undefined)	-2.1%
COC(=O)C12CN(C)CC(C(=O)OC)(C1=O)C(c1ccc([N+](=O)[O-])cc1)N(C)C2c1ccc([N+](=O)[O-])cc1 (stereo in doubt)	-3.1%

Query compound follows.
Query inhibition on Delta-type opioid receptor (Rattus norvegicus) (UniProt P33533) for COC(=O)C12CN(C)CC(C(=O)OC)(C1=O)C(c1cccc(C#N)c1)N(C)C2c1cccc(C#N)c1 (centres undefined)
5%
